tested on: Pseudomonas aeruginosa; assay: Antibacterial activity Pseudomonas aeruginosa MTCC 1688 by agar well method; assay type: functional
Active and inactive are the calls of the source. No cut-off for these calls is given here.
measured-quantity: MIC

Consider the reported MIC for these compounds:
CCCCCCCC/C=C\CCCCCCCC(=O)Nc1nnc(S[C@@H]2O[C@H](COC(C)=O)[C@H](OC(C)=O)[C@H](OC(C)=O)[C@H]2OC(C)=O)s1 ... inactive
CCCCCCCCCCCCCCCC(=O)Nc1nnc(S[C@@H]2O[C@H](COC(C)=O)[C@H](OC(C)=O)[C@H](OC(C)=O)[C@H]2OC(C)=O)s1 ... inactive
CCCCCCCC(=O)Nc1nnc(S[C@@H]2O[C@H](CO)[C@H](O)[C@H](O)[C@H]2O)s1 ... > 150 µg/mL
CCCCCCCCCCCCCCCC(=O)Nc1nnc(S[C@@H]2O[C@H](CO)[C@H](O)[C@H](O)[C@H]2O)s1 ... > 150 µg/mL

INPUT: Annotate the compound "CCCCCCCC/C=C\CCCCCCCCCCCC(=O)Nc1nnc(S[C@@H]2O[C@H](CO)[C@H](O)[C@H](O)[C@H]2O)s1" with its measured MIC.
OUTPUT: > 150 µg/mL

* * *

system: Pseudomonas aeruginosa; test: Antibacterial activity Pseudomonas aeruginosa MTCC 1688 by agar well method; format: functional
Activity calls are given as the source filed them. The rule behind the calls is not given here.
measured-quantity: MIC

CCCCCCCCCCCC(=O)Nc1nnc(S[C@@H]2O[C@H](COC(C)=O)[C@H](OC(C)=O)[C@H](OC(C)=O)[C@H]2OC(C)=O)s1 ... inactive
CCCCCC(=O)Nc1nnc(S[C@@H]2O[C@H](COC(C)=O)[C@H](OC(C)=O)[C@H](OC(C)=O)[C@H]2OC(C)=O)s1 ... inactive
CCCCCCCCCCCCCC(=O)Nc1nnc(S[C@@H]2O[C@H](COC(C)=O)[C@H](OC(C)=O)[C@H](OC(C)=O)[C@H]2OC(C)=O)s1 ... inactive
